Assay: pharmacokinetic study on guinea pigs under urethane anaesthesia, oral administration of dextrorphan citrate and tartrate; plasma dextrorphan by HPLC after β-glucuronidase hydrolysis
Format: in vivo
Conditions: guinea pig, plasma, po, Table 2 (dextrorphan tartrate by order of b16), 180 minutes, read-out: Dextrorphan hematic levels

{"structure-as-smiles": "CN1CC[C@@]23CCCC[C@@H]2[C@@H]1Cc1ccc(O)cc13", "concentration at 3 h": "3000 ng/mL"}

====

Test: pharmacokinetic study on guinea pigs under urethane anaesthesia, oral administration of dextrorphan citrate and tartrate; plasma dextrorphan by HPLC after β-glucuronidase hydrolysis
Assay type: in vivo
Conditions: guinea pig, plasma, po, Table 2 (dextrorphan tartrate by order of b16), 120 minutes, read-out: Dextrorphan hematic levels
readout-kind: concentration at 2 h (ng/mL)

{"compound": "CN1CC[C@@]23CCCC[C@@H]2[C@@H]1Cc1ccc(O)cc13 [Dextrorphan]", "units-label": "ng/mL", "endpoint-result": 3800}
